- Assay Details: Chemical stability observed on preparation and storage
- Type: physicochemical
- Measurement Parameters: observation on handling and storage; both acid- and base-sensitive, slowly decomposed at −78° C
Observable: stability

The cases that follow already have their stability on record.
Compound | stability
C[C@@H](O)[C@@]12O[C@]13c1cc(O)c4c(c1N[C@H]2C#C/C=C\C#C[C@H]3O)C(=O)c1cccc(CN)c1C4=O [Compound 48da, 9-Aminomethyl-uncialamycin] | extremely unstable
C[C@@H](O)[C@@]12O[C@]13c1cc(O)c4c(c1N[C@H]2C#C/C=C\C#C[C@H]3O)C(=O)c1cc2c(cc1C4=O)CNC2 | extremely unstable
C[C@@H](O)[C@@]12O[C@]13c1cc(O)c4c(c1N[C@H]2C#C/C=C\C#C[C@H]3O)C(=O)c1c(CN)cccc1C4=O [Compound 48ca, 6-Aminomethyl-uncialamycin] | extremely unstable
C[C@@H](O)[C@@]12O[C@]13c1cc(O)c4c(c1N[C@H]2C#C/C=C\C#C[C@H]3O)C(=O)c1cc(CN)ccc1C4=O [Compound 48ba, 7-Aminomethyl-uncialamycin] | extremely unstable
CNCc1ccc2c(c1)C(=O)c1c(O)cc3c(c1C2=O)N[C@H]1C#C/C=C\C#C[C@@H](O)[C@@]32O[C@@]12[C@@H](C)O | extremely unstable

# query: stability of entry C[C@@H](O)[C@@]12O[C@]13c1cc(O)c4c(c1N[C@H]2C#C/C=C\C#C[C@H]3O)C(=O)c1ccc(CN)cc1C4=O [Compound 48aa, 8-Aminomethyl-uncialamycin]
extremely unstable
